target: UniProt:Q9Y5Y9; assay: Compound inhibition activity on human NaV1.8 ion channel in HEK293 cells (whole-cell patch clamp); assay type: cell-based; details: 100 nm concentration; HEK293 cells, resting protocol
Sequence (Q9Y5Y9 whole entry): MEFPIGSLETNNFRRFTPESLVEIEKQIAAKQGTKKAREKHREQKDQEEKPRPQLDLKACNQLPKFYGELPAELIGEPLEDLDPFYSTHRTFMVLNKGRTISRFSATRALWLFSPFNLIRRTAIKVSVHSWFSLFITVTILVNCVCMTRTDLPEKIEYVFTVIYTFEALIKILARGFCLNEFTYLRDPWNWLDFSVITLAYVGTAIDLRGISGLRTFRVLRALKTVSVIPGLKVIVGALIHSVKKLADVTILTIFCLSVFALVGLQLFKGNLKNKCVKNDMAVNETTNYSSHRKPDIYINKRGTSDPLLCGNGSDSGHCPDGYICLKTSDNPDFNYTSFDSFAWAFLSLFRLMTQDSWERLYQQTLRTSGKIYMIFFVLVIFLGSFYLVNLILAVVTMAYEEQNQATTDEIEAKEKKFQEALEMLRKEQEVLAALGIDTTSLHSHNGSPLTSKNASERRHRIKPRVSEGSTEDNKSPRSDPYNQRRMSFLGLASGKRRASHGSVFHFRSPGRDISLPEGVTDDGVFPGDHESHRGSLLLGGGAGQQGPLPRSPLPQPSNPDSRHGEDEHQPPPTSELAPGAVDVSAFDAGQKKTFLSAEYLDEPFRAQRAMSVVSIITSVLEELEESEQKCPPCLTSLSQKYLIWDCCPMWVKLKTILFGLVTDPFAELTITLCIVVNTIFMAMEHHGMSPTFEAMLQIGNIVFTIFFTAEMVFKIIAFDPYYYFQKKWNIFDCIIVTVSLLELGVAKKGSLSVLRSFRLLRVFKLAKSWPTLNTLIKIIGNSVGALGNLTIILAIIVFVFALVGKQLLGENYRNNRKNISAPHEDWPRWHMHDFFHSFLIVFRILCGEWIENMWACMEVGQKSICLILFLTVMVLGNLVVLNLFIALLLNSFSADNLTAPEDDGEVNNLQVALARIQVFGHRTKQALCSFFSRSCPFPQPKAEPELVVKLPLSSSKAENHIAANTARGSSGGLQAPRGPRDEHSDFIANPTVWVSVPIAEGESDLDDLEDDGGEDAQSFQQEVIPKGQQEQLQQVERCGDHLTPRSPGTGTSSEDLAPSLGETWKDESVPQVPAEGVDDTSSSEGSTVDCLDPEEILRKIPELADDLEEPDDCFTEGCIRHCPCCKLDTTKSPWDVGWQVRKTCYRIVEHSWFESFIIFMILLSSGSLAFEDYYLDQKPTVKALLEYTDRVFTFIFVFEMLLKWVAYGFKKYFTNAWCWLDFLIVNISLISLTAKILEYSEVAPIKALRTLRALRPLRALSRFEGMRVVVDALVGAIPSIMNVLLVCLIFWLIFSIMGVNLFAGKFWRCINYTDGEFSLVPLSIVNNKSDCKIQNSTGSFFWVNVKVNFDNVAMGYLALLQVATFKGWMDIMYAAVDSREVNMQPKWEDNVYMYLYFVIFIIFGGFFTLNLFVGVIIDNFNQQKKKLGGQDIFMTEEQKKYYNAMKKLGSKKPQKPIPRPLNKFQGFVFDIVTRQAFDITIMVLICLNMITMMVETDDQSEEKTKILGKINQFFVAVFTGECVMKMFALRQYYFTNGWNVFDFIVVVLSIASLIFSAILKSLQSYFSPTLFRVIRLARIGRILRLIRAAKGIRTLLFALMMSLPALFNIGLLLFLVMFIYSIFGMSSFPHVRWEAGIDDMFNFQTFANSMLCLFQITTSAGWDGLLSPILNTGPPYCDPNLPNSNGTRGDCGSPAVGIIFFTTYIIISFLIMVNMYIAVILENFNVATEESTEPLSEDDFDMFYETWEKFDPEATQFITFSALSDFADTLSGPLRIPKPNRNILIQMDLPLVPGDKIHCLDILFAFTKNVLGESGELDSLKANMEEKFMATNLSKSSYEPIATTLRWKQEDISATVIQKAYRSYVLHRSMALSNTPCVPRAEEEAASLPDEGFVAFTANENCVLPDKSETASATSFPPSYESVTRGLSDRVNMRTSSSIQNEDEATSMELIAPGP
Endpoint: Inhibition ratio of Nav1.8 (Activity of inhibition)

                                   compound      result
0  Cc1cc(F)ccc1Oc1ccc(C(F)(F)F)cc1C(=O)Nc1ccc(F)c(CC(N)C(N)=O)c1 (centres unmarked) [Example 17]  D (D < 20)
1  Cc1cc(F)ccc1Oc1ccc(C(F)(F)F)cc1C(=O)Nc1ccc(F)c(C2CCC(C(N)=O)N2)c1 (centres unmarked) [Example 16]  D (D < 20)
